- System: PC3 cells
- PROTOCOL_DETAILS: cells
- Format: cell-based
- CONDITION_DESCRIPTION: Homo sapiens, PC-3, 168 h, read-out: IC50 after 7 days
Listing of entries alongside the reported IC50.
Dear colleague, please return just the value in µM, with no unit written.

Look over these answered cases.
>>> measured_number("CCC1CN2CCc3cc(OC)c(OC)cc3C2CC1CC1c2cc(OC)c(OC)cc2CCN1C(=S)NCc1ccc(OC)cc1 (stereo not drawn) [Compound 11f]")
5
>>> measured_number("CCC1CN2CCc3cc(OC)c(OC)cc3C2CC1CC1c2cc(OC)c(OC)cc2CCN1C(=S)NCc1ccc(F)cc1 (stereo not drawn) [Compound 11i]")
5.27

Now turn to the next molecule.
Give recorded IC50. CCCCNC(=S)N1CCc2cc(OC)c(OC)cc2C1CC1CC2c3cc(OC)c(OC)cc3CCN2CC1CC (stereo not drawn) [Compound 11k]
6.92

---

- System: PC3 cells
- PROTOCOL_DETAILS: cells
- Type: cell-based
- CONDITION_DESCRIPTION: Homo sapiens, PC-3, 168 h, read-out: IC50 after 7 days
- Procedure: Studies were carried out on three prostate cancer cell lines: LNCaP, PC3, and DU145. […] There was not a significant difference in cytotoxicity of emetine between days 3 and 7. […] This increase is most likely due to the release of emetine from the dithiocarbamate salt over the time period. […] Various compounds prepared according to Example 6 were studied in DU145 and PC3 cells. The IC50 was determined at 3, 5, and 7 days.
METRIC: IC50 (µM)
Provide the reading as a plain figure in µM.

# example entries with known answers
>>> measured_number("CCC1CN2CCc3cc(OC)c(OC)cc3C2CC1CC1c2cc(OC)c(OC)cc2CCN1S(=O)(=O)c1ccc(F)cc1 (stereo not shown)")
4.58
>>> measured_number("CCC1CN2CCc3cc(OC)c(OC)cc3C2CC1CC1c2cc(OC)c(OC)cc2CCN1C(=S)SCC(=O)Nc1ccc(Br)cc1 (stereo not shown)")
2.77

Answer with reported IC50 of CCC1CN2CCc3cc(OC)c(OC)cc3C2CC1CC1c2cc(OC)c(OC)cc2CCN1S(C)(=O)=O (stereo not shown)
4.01

State, in one line, measured IC50 of CCC1CN2CCc3cc(OC)c(OC)cc3C2CC1CC1c2cc(OC)c(OC)cc2CCN1S(=O)(=O)c1ccc(OC)cc1 (stereo not shown)
6.08

---

Examples of molecules with documented IC50 follow.
- Test system: PC3 cells
- PROTOCOL_DETAILS: cells
- Assay type: cell-based
- CONDITION_DESCRIPTION: Homo sapiens, PC-3, 168 h, read-out: IC50 after 7 days

// solved cases for IC50 follow
>>> result("CCC1CN2CCc3cc(OC)c(OC)cc3C2CC1CC1c2cc(OC)c(OC)cc2CCN1C(=S)SCCCCC(=O)OC (stereo not shown) [Compound 4l]")
"4860 nM"
>>> result("CCCCCCSC(=S)N1CCc2cc(OC)c(OC)cc2C1CC1CC2c3cc(OC)c(OC)cc3CCN2CC1CC (stereo not shown) [Compound 4h]")
"3030 nM"
>>> result("CCC1CN2CCc3cc(OC)c(OC)cc3C2CC1CC1c2cc(OC)c(OC)cc2CCN1C(=S)SCC(=O)c1ccc(Cl)cc1 (stereo not shown) [Compound 4i]")
"2690 nM"
>>> result("CCC1CN2CCc3cc(OC)c(OC)cc3C2CC1CC1c2cc(OC)c(OC)cc2CCN1C(=S)Nc1ccc(Br)cc1 (stereo not shown) [Compound 11d]")
"443 nM"
>>> result("CCCCCCNC(=S)N1CCc2cc(OC)c(OC)cc2C1CC1CC2c3cc(OC)c(OC)cc3CCN2CC1CC (stereo not shown) [Compound 11l]")
"2450 nM"
>>> result("CCC1CN2CCc3cc(OC)c(OC)cc3C2CC1CC1c2cc(OC)c(OC)cc2CCN1C(=S)NCCOC (stereo not shown) [Compound 11n]")
"> 10000 nM"

Proceed to the following item.
Could you please provide reported IC50 for CCC1CN2CCc3cc(OC)c(OC)cc3C2CC1CC1c2cc(OC)c(OC)cc2CCN1C(=S)NCc1ccc(Cl)cc1 (stereo not shown) [Compound 11g] ? Thanks!
2860 nM

---

- PROTOCOL_DETAILS: pH-responsiveness by HPLC: emetine released in aqueous phosphate buffer
- Format: physicochemical
- CONDITION_DESCRIPTION: pH 6.5, 24 hrs, 37° C.
// assign class 1 if % Emetine at pH 6.5 falls strictly below 40%, else class 0 (ties count as class 0)

Reference set (4 entries):
>>> group("CCC1CN2CCc3cc(OC)c(OC)cc3C2CC1CC1c2cc(OC)c(OC)cc2CCN1C(=O)/C=C(/C)C(=O)O (centres unmarked) [Compound 3]")
"class 0"
>>> group("CCC1CN2CCc3cc(OC)c(OC)cc3C2CC1CC1c2cc(OC)c(OC)cc2CCN1C(=O)/C=C\\C(=O)O (centres unmarked) [Compound 2]")
"class 1"
>>> group("CCC1CN2CCc3cc(OC)c(OC)cc3C2CC1CC1c2cc(OC)c(OC)cc2CCN1C(=O)/C=C\\C(=O)O (centres unmarked) [Compound 4]")
"class 1"
>>> group("CCC1CN2CCc3cc(OC)c(OC)cc3C2CC1CC1c2cc(OC)c(OC)cc2CCN1C(=O)/C=C(/C)C(=O)O (centres unmarked) [Compound 5]")
"class 1"

Lab note: confirm whether the reported % Emetine at pH 6.5 for this compound is below 40%, equality not counting. compound: CCC1CN2CCc3cc(OC)c(OC)cc3C2CC1CC1c2cc(OC)c(OC)cc2CCN1C(=O)/C=C(/CC(=O)O)C(=O)O (centres unmarked)
class 1

---

- System: PC3 cells
- PROTOCOL_DETAILS: Cytotoxicity in 100% confluent PC3 cells (Example 9)
- Type: cell-based
- CONDITION_DESCRIPTION: Homo sapiens, PC-3, 120 h; PC3, 100% confluent cells, medium pH 6.7, day 5
METRIC: IC50 (µM)
All answers are understood in µM, so give the number only.

Tell me its IC50 given "CC[C@H]1CN2CCc3cc(OC)c(OC)cc3[C@@H]2C[C@@H]1C[C@H]1NCCc2cc(OC)c(OC)cc21" as the entry.
3.85

---

Catalogue of compounds with associated % Emetine at pH 5.5
- PROTOCOL_DETAILS: pH-responsiveness by HPLC: emetine released in aqueous phosphate buffer
- Assay type: physicochemical
- CONDITION_DESCRIPTION: pH 5.5, 24 hrs, 37° C.
Please give a number only; it is taken to be in %.

Solved entries (count: 2):
>>> measured_number("CCC1CN2CCc3cc(OC)c(OC)cc3C2CC1CC1c2cc(OC)c(OC)cc2CCN1C(=O)/C=C(/C)C(=O)O (centres unmarked) [Compound 3]")
78.1
>>> measured_number("CCC1CN2CCc3cc(OC)c(OC)cc3C2CC1CC1c2cc(OC)c(OC)cc2CCN1C(=O)/C=C\\C(=O)O (centres unmarked) [Compound 2]")
36.3

Give me measured % Emetine at pH 5.5, please, for this compound: CCC1CN2CCc3cc(OC)c(OC)cc3C2CC1CC1c2cc(OC)c(OC)cc2CCN1C(=O)/C=C\C(=O)O (centres unmarked) [Compound 4]
19.2

# return recorded % Emetine at pH 5.5 for input CCC1CN2CCc3cc(OC)c(OC)cc3C2CC1CC1c2cc(OC)c(OC)cc2CCN1C(=O)/C=C(/CC(=O)O)C(=O)O (centres unmarked)
33.9

Give me measured % Emetine at pH 5.5, please, for this compound: CCC1CN2CCc3cc(OC)c(OC)cc3C2CC1CC1c2cc(OC)c(OC)cc2CCN1C(=O)/C=C(/C)C(=O)O (centres unmarked) [Compound 5]
61.5

---

- Tested on: PC3 cells
- PROTOCOL_DETAILS: cells
- Format: cell-based
- CONDITION_DESCRIPTION: Homo sapiens, PC-3, 168 h, read-out: IC50 after 7 days
Catalogue of pIC50 readings, one per entry.
Scale explanation: pIC50 corresponds to minus log10 of a concentration expressed in moles per litre.

Below, each entry is followed by its recorded pIC50 result.
>>> measured_number("CCC1CN2CCc3cc(OC)c(OC)cc3C2CC1CC1c2cc(OC)c(OC)cc2CCN1C(=S)Nc1ccc(Cl)cc1 (stereo not shown) [Compound 11c]")
6.30
>>> measured_number("CCC1CN2CCc3cc(OC)c(OC)cc3C2CC1CC1c2cc(OC)c(OC)cc2CCN1C(=S)SCc1ccccc1 (stereo not shown)")
5.81
>>> measured_number("CCC1CN2CCc3cc(OC)c(OC)cc3C2CC1CC1c2cc(OC)c(OC)cc2CCN1C(=S)SCCC(N)=O (stereo not shown)")
5.18
>>> measured_number("CCOC(=O)c1ccc(NC(=O)CSC(=S)N2CCc3cc(OC)c(OC)cc3C2CC2CC3c4cc(OC)c(OC)cc4CCN3CC2CC)cc1 (stereo not shown)")
5.57
>>> measured_number("CCC1CN2CCc3cc(OC)c(OC)cc3C2CC1CC1c2cc(OC)c(OC)cc2CCN1C(=S)Nc1ccccc1 (stereo not shown) [Compound 11a]")
6.32

Consider the molecule CCC1CN2CCc3cc(OC)c(OC)cc3C2CC1CC1c2cc(OC)c(OC)cc2CCN1C(=S)SCCN1C(=O)c2ccccc2C1=O (stereo not shown) . State its measured pIC50.
5.56

Provenance of the data: patent US11780833B2
